- System: OVCAR-5 ovarian
- PROCEDURE SUMMARY: NCI tumour cell line growth inhibition, 48 h
MEASURED ENDPOINT: GI50

input: I'd like to know its GI50. The compound in question is O=C(O)CCC(NC(=S)S)C(=O)O.[Na+].[Zn+2] (stereo unspecified)
output: > 50 µM

input: I'd like to know its GI50. The compound in question is `Cn1c2ccccc2c2c(=O)c3ccccc3[nH]c21`
output: 30.8 µM

input: I'd like to know its GI50. The compound in question is `O=C1c2cccnc2-c2nc(-c3ccncc3)cc3c2c1nc1ccccc13`
output: 31.2 µM

input: I'd like to know its GI50. The compound in question is `Cn1c([N+](=O)[O-])cnc1/C=C1\Oc2cc(Cl)ccc2C1=O`
output: 2.47 µM

input: I'd like to know its GI50. The compound in question is `CC(=O)N[C@H](C(=O)N[C@@H](CCCNC(=N)N)C(=O)N[C@@H](CCCCN)C(=O)N[C@@H](CCCNC(=N)N)C(=O)N[C@]1(C)CCCCCC/C=C\CCC[C@@](C)(C(=O)N[C@@H](CCCNC(=N)N)C(=O)N[C@@H](CCC(=O)O)C(=O)N[C@@H](CC(C)C)C(=O)N[C@H](C(=O)N[C@@H](CCC(=O)O)C(N)=O)C(C)C)NC(=O)[C@H](CCC(N)=O)NC(=O)[C@H](CC(C)C)NC(=O)[C@H](CC(C)C)NC(=O)[C@H](CCCNC(=N)N)NC(=O)[C@H](CCCNC(=N)N)NC(=O)[C@H](CC(C)C)NC1=O)C(C)C`
output: 11.5 µM

input: I'd like to know its GI50. The compound in question is `O=S(=O)(CCOCc1ccc(-c2ccc3ncnc(Nc4ccc(OCc5cccc(F)c5)c(Cl)c4)c3c2)o1)c1ccccc1`
output: > 25 µM

---

Give measured TGI for each item. Keep answers brief.
- System: OVCAR-8 ovarian
- PROCEDURE SUMMARY: NCI tumour cell line growth inhibition, 48 h

input: I'd like to know its TGI. The compound in question is `OB1OCc2cc(/C=C/c3cccc(C(F)(F)F)c3)ccc21`
output: 24.2 µM

input: I'd like to know its TGI. The compound in question is Cc1ccc(S(=O)(=O)N/N=C(\c2nc3ccc([N+](=O)[O-])cc3[nH]c2=O)C(O)c2ccccc2Cl)cc1 (configuration not stated)
output: > 100 µM

input: I'd like to know its TGI. The compound in question is `CCOC(=N)n1c(=O)n(C2=NCCN2)c2ccccc21`
output: > 100 µM

input: I'd like to know its TGI. The compound in question is `Cn1cc(-c2csc(-c3cn(C)c4ccccc34)n2)c2cnccc21`
output: 6.7 µM

input: I'd like to know its TGI. The compound in question is `Cc1cc2[nH]c3[nH]c(=O)[nH]c(=O)c3c2cc1C`
output: > 100 µM

input: I'd like to know its TGI. The compound in question is `CN(C)Cc1cc(C(=O)/C=C/c2ccc(O)cc2)cc(CN(C)C)c1O`
output: > 100 µM

input: I'd like to know its TGI. The compound in question is COC(=O)/C(C#N)=C1\CCC(C(=O)OC)N1C (configuration not stated)
output: > 100 µM

input: I'd like to know its TGI. The compound in question is `O=C1C[C@H](Sc2ccccc2)C2(OCCO2)[C@@H](Sc2ccccc2)C1`
output: 8.02 µM

input: I'd like to know its TGI. The compound in question is `CCN(CC)CCNC(=O)c1cn2ncnc(Oc3ccc(NC(=O)Nc4ccc(Cl)c(C(F)(F)F)c4)c(F)c3)c2c1C`
output: 3.96 µM

input: I'd like to know its TGI. The compound in question is `CC(=O)N[C@H](C(=O)N[C@@H](CCCNC(=N)N)C(=O)N[C@@H](CCCCN)C(=O)N[C@@H](CCCNC(=N)N)C(=O)N[C@]1(C)CCCCCC/C=C\CCC[C@@](C)(C(=O)N[C@@H](CCCNC(=N)N)C(=O)N[C@@H](CCC(=O)O)C(=O)N[C@@H](CC(C)C)C(=O)N[C@H](C(=O)N[C@@H](CCC(=O)O)C(N)=O)C(C)C)NC(=O)[C@H](CCC(N)=O)NC(=O)[C@H](CC(C)C)NC(=O)[C@H](CC(C)C)NC(=O)[C@H](CCCNC(=N)N)NC(=O)[C@H](CCCNC(=N)N)NC(=O)[C@H](CC(C)C)NC1=O)C(C)C`
output: > 50 µM

input: I'd like to know its TGI. The compound in question is `O=c1oc(-c2ccc(O)c(O)c2)cc2cccc(O)c12`
output: > 100 µM

input: I'd like to know its TGI. The compound in question is `O=C1C(SCCO)=C(SCCO)C(=O)c2ccccc21`
output: 1.22 µM

input: I'd like to know its TGI. The compound in question is `Cc1csc(-c2cn(C)c3c2C(=O)C(N)=CC3=O)n1`
output: > 100 µM

input: I'd like to know its TGI. The compound in question is `COc1ccc(C#CC(=O)O)c(OC)c1`
output: > 100 µM

input: I'd like to know its TGI. The compound in question is `NC(N)=NS(=O)(=O)c1ccc(NC(=O)c2cccc3c(Nc4ccc(S(N)(=O)=O)cc4)c4ccccc4nc23)cc1`
output: > 100 µM

input: I'd like to know its TGI. The compound in question is `CC(C)(C)NC(=O)/C(=C\Sc1ccccc1)c1ccc2c(c1)OCO2`
output: > 100 µM

input: I'd like to know its TGI. The compound in question is `COCCOCCOCc1n(Cc2ccc3ccccc3n2)c2ccccc2[n+]1Cc1ccc2ccccc2c1`
output: 1.92 µM

Reference source: PubChem BioAssay (NCI)
